This listing pairs binders with measured interaction score.
# Experimental system: T1, 4H2109-AA
# T1 chain: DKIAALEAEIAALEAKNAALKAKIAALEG
# Measurement notes: two-hybrid library CCmax;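 note: natural log of median RNA to DNA barcode read ratio; higher means stronger binding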
# Condition parameters: mean of both orientations
Reply briefly: the number, and no unit.

Example binders with recorded interaction score:
{"Binder": "DENAALKAEIAALEAKIAALKAENAALEG [4H1579-AA]", "interaction score": 0.8}
{"Binder": "DENAALEAKIAALKAKIAALKAEIAALEG [4H1385-AA]", "interaction score": 0.64}
{"Binder": "DENAALKAKIAALEAKNAALEAEIAALKG [4H1842-AA]", "interaction score": -1.43}

Challenge: Which interaction score is reported for this binder? DENAALKAEIAALKAENAALKAEIAALKG [4H1626-AA]
Response given: -1.51
